# tgt: OTUB2 (OTUB2A) (Homo sapiens, UniProt Q96DC9)
# Construct: full length residues 1-234, E. coli BL21(DE3)-R3, His tag removed by TEV, construct 27312 Da
# Sequence (Q96DC9 whole entry, the tested form may be a part): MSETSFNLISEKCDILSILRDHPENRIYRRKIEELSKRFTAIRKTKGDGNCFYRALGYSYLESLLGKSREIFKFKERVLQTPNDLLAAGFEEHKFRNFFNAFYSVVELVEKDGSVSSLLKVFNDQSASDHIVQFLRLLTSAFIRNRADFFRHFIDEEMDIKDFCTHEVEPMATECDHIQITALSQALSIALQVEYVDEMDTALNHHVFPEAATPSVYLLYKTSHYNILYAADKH
# Set-up: Intact protein LC/MS covalent labelling, fragments in pools of five, 200 uM each, 4 °C
# measurement.setup: 24 h, 4 °C, pool of five; 200 µM; covalent
parameter: OTUB2

# compound, parameter, reported
data = [
    ("Cc1cccc(N(C(=O)CCl)C2C=CS(=O)(=O)C2)c1 (stereo not drawn)", "OTUB2", 0),
    ("C=CC(=O)N1CCCC(c2ncc3n2CCCC3)C1 (stereo not drawn)", "OTUB2", 0),
    ("C=CC(=O)NNC(=O)c1ccccc1", "OTUB2", 0),
    ("O=C(CCl)NNC(=O)c1ccccc1Cl", "OTUB2", 0.8),
    ("O=C(CCl)N(C1CC1)C1CCCc2ccccc21 (stereo not drawn)", "OTUB2", 0),
    ("NS(=O)(=O)c1ccc(NC(=O)CCl)cc1", "OTUB2", 0.29),
    ("C=CC(=O)NCc1cc2sccc2s1", "OTUB2", 0.08),
    ("C=CC(=O)NCC1(O)CCCC(C(F)(F)F)C1 (stereo not drawn)", "OTUB2", 0.08),
    ("C=CC(=O)N1CCC(CN2C(=O)CNC2=O)C1 (stereo not drawn)", "OTUB2", 0),
    ("Cc1ccc(C)c(NC(=O)CCl)c1", "OTUB2", 0),
    ("O=C(CCl)Nc1ccc(F)cc1F", "OTUB2", 0.26),
    ("C=CC(=O)NCC1CCCS1 (stereo not drawn)", "OTUB2", 0),
    ("CC(NC(=O)CCl)C12CC3CC(CC(C3)C1)C2 (stereo not drawn)", "OTUB2", 0.24),
    ("Cc1ccc(-n2nc(C)c(NC(=O)CCl)c2C)cc1", "OTUB2", 0),
    ("C=CC(=O)N1CCCCC1c1cnn(C)c1 (stereo not drawn)", "OTUB2", 0),
    ("N#CC(c1ccc(F)cc1)N1CCN(C(=O)CCl)CC1 (stereo not drawn)", "OTUB2", 0),
    ("Cl.O=C(CCl)N1CCN(Cc2ccccc2)CC1", "OTUB2", 0.35),
    ("C=CC(=O)Nc1ccc(C(=O)O)cc1", "OTUB2", 0),
    ("CC(C)(C)c1nnc(NC(=O)CCl)s1", "OTUB2", 0),
    ("Cc1sc2nc(-c3cccc(NC(=O)CCl)c3)[nH]c(=O)c2c1C", "OTUB2", 0.13),
    ("Cn1cccc1C(=O)NC(=O)CCl", "OTUB2", 0),
    ("O=C(CCl)Nc1cccc(I)c1", "OTUB2", 0.49),
    ("C=CC(=O)NCc1ccc2cnn(C)c2c1", "OTUB2", 0),
    ("COC(=O)c1cccc(NC(=O)CCl)c1", "OTUB2", 0.87),
    ("O=C(CCl)N1CCC(c2nc3ccccc3o2)CC1", "OTUB2", 0),
    ("Cc1ccc(-c2csc(NC(=O)CCl)n2)cc1", "OTUB2", 0),
    ("C=CC(=O)NC(=O)Nc1ccccc1", "OTUB2", 0),
    ("C=CC(=O)N1CCC(C(=O)c2cccs2)CC1", "OTUB2", 0),
    ("O=C(CCl)Nc1ccc(N2CCOCC2)cc1", "OTUB2", 0.54),
    ("O=C(CCl)NCc1cc(F)cc(F)c1", "OTUB2", 0),
    ("CC(NC(=O)CCl)c1cccs1 (stereo not drawn)", "OTUB2", 0.55),
    ("O=C(CCl)NN1C(=O)NC2(CCCCC2)C1=O", "OTUB2", 0),
    ("Cl.O=C(CCl)N1CCN(c2ccccc2F)CC1", "OTUB2", 0),
    ("CN(Cc1cnn(C)c1)C(=O)CCl.Cl", "OTUB2", 0.26),
    ("O=C(CCl)N1CCN(S(=O)(=O)c2ccccc2F)CC1", "OTUB2", 0),
    ("COC(=O)c1c(NC(=O)CCl)sc2c1CCCCC2", "OTUB2", 0),
    ("CC1CCCN(C(=O)C2CCN(C(=O)CCl)CC2)C1 (stereo not drawn)", "OTUB2", 0),
    ("O=C(CCl)N1CCC2(CC1)OCCO2", "OTUB2", 0),
    ("C=CC(=O)N1CCC2(CC1)CNC(=O)C2", "OTUB2", 0),
    ("CC(=O)c1ccccc1NC(=O)CCl", "OTUB2", 0),
    ("CC1CCCC(NC(=O)NC(=O)CCl)C1C (stereo not drawn)", "OTUB2", 0),
    ("NC(=O)c1ccsc1NC(=O)CCl", "OTUB2", 0),
    ("COC(=O)c1ccccc1N(C)C(=O)CCl", "OTUB2", 0),
    ("O=C(CCl)N1CCN(c2ccccc2[N+](=O)[O-])CC1", "OTUB2", 0.09),
    ("O=C(CCl)N(C1=CCCCC1)C1CC1", "OTUB2", 0),
]
